assay: Inhibition of ROCK-mediated myosin light chain bisphosphorylation in rat A7R5 cells after 1 hr by fluorescence assay in presence of L-alpha-lysophosphatidic acid; assay type: cell-based
PARAMETER_MEASURED: IC50 (nM)

ENTRY_SMILES: COc1cccc(CN(C(=O)Nc2ccc(-c3cn[nH]c3)cc2)C2CC2)c1
PARAMETER_MEASURED: IC50
NUMERIC_READOUT: 4

(I) COc1cccc(CN(CCN(C)C)C(=O)Nc2ccc(-c3cn[nH]c3)cc2)c1
(II) CCN(Cc1cccc(OC)c1)C(=O)Nc1ccc(-c2cn[nH]c2)cc1
(III) COc1cccc(CN(CCO)C(=O)Nc2ccc(-c3cn[nH]c3)cc2OCCO)c1
(IV) O=C(Nc1ccc(-c2cn[nH]c2)cc1)OCCc1ccccc1
Exam item: # rank by IC50, ascending (min first) Write the labels out in the order the request specifies.
Marked response: I, II, III, IV

====

molecular target: Rho-associated protein kinase 1 (Homo sapiens, UniProt Q13464)
Sequence (Q13464 whole entry): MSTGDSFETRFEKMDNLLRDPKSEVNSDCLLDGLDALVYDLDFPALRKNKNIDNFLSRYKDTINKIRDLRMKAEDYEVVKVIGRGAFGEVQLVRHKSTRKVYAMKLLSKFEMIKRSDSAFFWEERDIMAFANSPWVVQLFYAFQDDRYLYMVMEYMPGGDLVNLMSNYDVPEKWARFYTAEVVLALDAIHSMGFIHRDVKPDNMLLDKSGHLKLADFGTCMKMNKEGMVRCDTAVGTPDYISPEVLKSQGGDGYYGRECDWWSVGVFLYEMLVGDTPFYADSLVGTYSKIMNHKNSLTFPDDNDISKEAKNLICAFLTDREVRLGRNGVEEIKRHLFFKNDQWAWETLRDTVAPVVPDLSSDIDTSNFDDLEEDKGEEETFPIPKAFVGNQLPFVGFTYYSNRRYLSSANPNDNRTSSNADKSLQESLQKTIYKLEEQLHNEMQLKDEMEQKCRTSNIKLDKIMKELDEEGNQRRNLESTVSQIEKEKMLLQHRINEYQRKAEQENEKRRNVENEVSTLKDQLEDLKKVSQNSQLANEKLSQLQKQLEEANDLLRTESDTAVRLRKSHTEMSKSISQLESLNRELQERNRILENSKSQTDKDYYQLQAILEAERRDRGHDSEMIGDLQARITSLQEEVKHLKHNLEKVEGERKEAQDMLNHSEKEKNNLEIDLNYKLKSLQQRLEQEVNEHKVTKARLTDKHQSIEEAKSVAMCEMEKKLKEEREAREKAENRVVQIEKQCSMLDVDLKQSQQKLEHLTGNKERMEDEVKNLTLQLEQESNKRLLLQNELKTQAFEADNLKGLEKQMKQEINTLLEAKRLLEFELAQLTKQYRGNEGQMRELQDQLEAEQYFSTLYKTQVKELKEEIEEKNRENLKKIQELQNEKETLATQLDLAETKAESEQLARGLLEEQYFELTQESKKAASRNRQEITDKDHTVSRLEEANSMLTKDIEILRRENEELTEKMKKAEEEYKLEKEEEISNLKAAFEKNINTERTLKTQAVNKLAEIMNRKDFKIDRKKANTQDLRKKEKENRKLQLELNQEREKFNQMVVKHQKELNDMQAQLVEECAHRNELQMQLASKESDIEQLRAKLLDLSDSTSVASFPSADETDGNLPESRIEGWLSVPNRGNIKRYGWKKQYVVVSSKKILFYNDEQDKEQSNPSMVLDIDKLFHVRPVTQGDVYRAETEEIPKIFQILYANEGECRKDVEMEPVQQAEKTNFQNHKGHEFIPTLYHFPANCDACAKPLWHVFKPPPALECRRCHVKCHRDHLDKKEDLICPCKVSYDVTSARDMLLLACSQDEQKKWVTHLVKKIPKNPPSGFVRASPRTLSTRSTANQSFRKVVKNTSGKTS
PARAMETER_MEASURED: IC50 (nM)

MOLECULE: O=C(Nc1ccc(-c2cn[nH]c2)cc1)N(CCO)Cc1ccccc1
UNITS_LABEL: nM
IC50: 33
--
MOLECULE: CCN(Cc1cccc(OC)c1)C(=O)Nc1ccc(-c2cn[nH]c2)cc1O[C@H]1CCN(C)C1
UNITS_LABEL: nM
IC50: 4
--
MOLECULE: COc1cccc(CN(CCN(C)C)C(=O)Nc2ccc(-c3cn[nH]c3)cn2)c1
UNITS_LABEL: nM
IC50: 10

(1) COc1cccc(C(CCO)NC(=O)Nc2ccc(-c3cn[nH]c3)cc2)c1 (stereo unspecified)
(2) COc1cccc(CN(CCO)C(=O)Nc2ccc(-c3cn[nH]c3)cc2)c1
Exam item: Please tell me which of the two, 1 or 2 , has the higher reported IC50 value. Refer to your chosen item by its label in the answer.
Marked response: 1

====

Quick record: IC50, Cytochrome P450 3A4 (Homo sapiens, UniProt P08684).
PARAMETER_MEASURED: IC50 (µM)

(a) COc1cccc(CN(CCN(C)C)C(=O)Nc2ccc(-c3cn[nH]c3)cc2)c1
(b) COc1cccc(CN(CCO)C(=O)Nc2ccc(-c3cn[nH]c3)cc2)c1
Exam item: Please tell me which of the two, a or b , has the higher reported IC50 value. Refer to your chosen item by its label in the answer.
Marked response: a

====

Quick record: IC50, Rho-associated protein kinase 2 (Homo sapiens, UniProt O75116).
PARAMETER_MEASURED: IC50 (µM)

(1) COc1ccc(CNC(=O)Nc2ccc(-c3cn[nH]c3)cc2)c(OC)c1
(2) COc1cccc(CN(CCN(C)C)C(=O)Nc2ccc(-c3cn[nH]c3)cc2OCCN(C)C)c1
(3) COc1cccc(CNC(=O)N(CCN(C)C)c2ccc(-c3cn[nH]c3)cc2)c1
(4) COc1cccc(CN(CCCN2CCCC2)C(=O)Nc2ccc(-c3cn[nH]c3)cc2)c1
(5) O=C(NCC1CCCCC1)Nc1ccc(-c2cn[nH]c2)cc1
Exam item: Please rank the 5 items above; order by IC50, the highest number leading. Write the labels out in the order the request specifies.
Marked response: 3, 5, 1, 2, 4

====

test: Volume of distribution in Sprague-Dawley rat at 1 mg/kg, iv by LC-MS/MS analysis; format: ADME, organism-based; parameters: dose 1 mg/kg, route intravenous; conditions: in vivo
PARAMETER_MEASURED: Vd (L/kg)

Below, 2 compounds whose answers are already recorded.
COMPOUND: CN(C)CCC(NC(=O)Nc1ccc(-c2cn[nH]c2)cc1)c1ccccc1 (stereo not given)
Vd (L/kg): 20
//
COMPOUND: COc1cccc(CN(C)C(=O)Nc2ccc(-c3cn[nH]c3)cc2)c1
Vd (L/kg): 1.1

(1) COc1cccc(CN(CCN(C)C)C(=O)Nc2ccc(-c3cn[nH]c3)cc2)c1
(2) COc1cccc(CN(CCO)C(=O)Nc2ccc(-c3cn[nH]c3)cc2)c1
(3) COc1cccc(CN(CCN2CCCC2)C(=O)Nc2ccc(-c3cn[nH]c3)cc2)c1
Exam item: # rank_down: sort by Vd, max first Write the labels out in the order the request specifies.
Marked response: 1, 3, 2
(1: 14 L/kg, 3: 4.4 L/kg, 2: 1 L/kg)
